- test.target: recombinant human mGluR2 (Homo sapiens (Human), UniProt Q14416)
- Sequence (Q14416 19-872): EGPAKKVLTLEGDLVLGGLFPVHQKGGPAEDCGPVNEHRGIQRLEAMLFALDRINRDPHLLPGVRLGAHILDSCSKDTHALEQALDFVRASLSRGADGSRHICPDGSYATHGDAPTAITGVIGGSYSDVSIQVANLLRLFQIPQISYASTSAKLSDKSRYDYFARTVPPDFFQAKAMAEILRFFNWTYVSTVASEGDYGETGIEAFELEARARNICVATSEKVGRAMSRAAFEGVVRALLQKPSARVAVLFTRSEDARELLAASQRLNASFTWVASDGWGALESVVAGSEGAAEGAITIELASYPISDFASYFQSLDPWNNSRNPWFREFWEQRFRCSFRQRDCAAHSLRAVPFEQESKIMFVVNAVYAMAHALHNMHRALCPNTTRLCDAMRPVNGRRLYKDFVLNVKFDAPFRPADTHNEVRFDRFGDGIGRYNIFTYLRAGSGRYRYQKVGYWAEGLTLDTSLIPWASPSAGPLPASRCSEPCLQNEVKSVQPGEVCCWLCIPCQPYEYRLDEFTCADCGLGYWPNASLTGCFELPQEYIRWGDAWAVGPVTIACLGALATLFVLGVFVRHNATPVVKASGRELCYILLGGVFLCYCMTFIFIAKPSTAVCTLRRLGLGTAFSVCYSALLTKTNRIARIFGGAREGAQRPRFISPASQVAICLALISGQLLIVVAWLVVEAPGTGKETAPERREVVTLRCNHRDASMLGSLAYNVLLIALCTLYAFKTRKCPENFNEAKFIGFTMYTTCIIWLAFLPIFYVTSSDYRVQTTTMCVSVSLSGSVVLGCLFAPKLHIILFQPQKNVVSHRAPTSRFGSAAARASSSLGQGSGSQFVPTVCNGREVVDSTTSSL
- test.summary: FLIPR Ca2+ mobilization antagonist assay in CHO dhfr- cells expressing human mGluR2 and Gα16
- assay.context: antagonist response after addition of 2,500 nM glutamate, Fluo-4 AM, FLIPR384
pIC50: −log10 of the molar value.
measurement.kind: pIC50

[[record]]
compound = "CC1(CN2CCc3c(-c4ccc(Cl)cc4F)cc(C(N)=O)nc3C2)COC1"
measurement_kind = "pIC50"
readout_number = 7.51

[[record]]
compound = "Cn1nccc1CN1CCc2c(-c3ccc(F)cc3F)cc(C(N)=O)nc2C1"
measurement_kind = "pIC50"
readout_number = 7.84

[[record]]
compound = "CC(c1cnnn1C)N1CCc2c(-c3ccc(F)cc3F)cc(C(N)=O)nc2C1 (single isomer, unassigned) [Example 7-1]"
measurement_kind = "pIC50"
readout_number = 7.43


I: NC(=O)c1cc(N2CCCC(F)C2)c2c(n1)CN(Cc1ccnc(C(F)(F)F)c1)CC2 (single isomer, unassigned) [Example 5-6A]
II: CC1(C)CC(CN2CCc3c(-c4ccc(Cl)cc4F)cc(C(N)=O)nc3C2)CCO1 (single isomer, unassigned) [Example 1-5A]
III: NC(=O)c1cc(N2CCC3(CC2)CC3)c2c(n1)CN(Cc1ccnc(C(F)(F)F)n1)CC2
IV: COc1cnn(-c2cc(C(N)=O)nc3c2CCN(Cc2ccnc(C(F)(F)F)c2)C3)c1
Request: Place the items in sequence of falling pIC50. Reply: labels, ordered per the request.
Response: II, III, I, IV
(II: 8.25, III: 7.88, I: 7.67, IV: 7.05)

1: CC(c1ccnc(C(F)(F)F)c1)N1CCc2c(-c3cnn(C(F)F)c3)cc(C(N)=O)nc2C1 (single isomer, unassigned) [Example 7-3B]
2: NC(=O)c1cc(-c2ccc(Cl)cc2F)c2c(n1)CN(Cc1ccnc(C(F)(F)F)n1)CC2
3: CC(C)(C)n1nccc1CN1CCc2c(-c3ccncc3)cc(C(N)=O)nc2C1
4: CC(c1cnnn1C)N1CCc2c(-c3ccc(F)cc3F)cc(C(N)=O)nc2C1 (single isomer, unassigned) [Example 7-2]
Request: Ascending by pIC50, please: list the compounds accordingly. Order the labels as requested and give them as your answer.
Response: 3, 4, 1, 2

1: NC(=O)c1cc(-c2ccc(F)cc2F)c2c(n1)CN(C(CO)c1ccccc1)CC2 (racemic) [Example 8-2A]
2: NC(=O)c1cc(-c2cc(C3CC3)ns2)c2c(n1)CN(Cc1ccnc(C3CC3)c1)CC2
Request: Larger number for pIC50: 1 , or 2 ? Kindly give the label for the entry you pick.
Response: 1
(1: 8.00, 2: 7.74)

a: NC(=O)c1cc(-c2cnn(C(F)F)c2)c2c(n1)CN(Cc1ccnc(OC(F)F)c1)CC2
b: CC1(C)CC(CN2CCc3c(-c4ccc(F)cc4F)cc(C(N)=O)nc3C2(C)C)CCO1 (racemic) [Example 1-23A]
Request: // pick larger pIC50 from pair: a vs b # answer = label of selected item
Response: a
